meta.source: the supplement of paper PMC9942255

tested on: Bacillus subtilis DB104 (SP-AmyQ fusion secretion); test: AmyQ secretion efficiency, weighted average sort bin (1 = best secretion, 10 = worst) (bin number (weighted average, 1-10)); higher = lower secretion efficiency
We begin with a simple list: items and their reported AmyQ secretion efficiency.

SEQUENCE_DATA | AmyQ secretion efficiency
MRKRKKKSMLTVMIASLFIFSSQALAVQY | 6.79
MKSKWMSGLLLVAVGFSFTQVMEHAGET | 7.11
MFNRLFRVCFLAALIMAFTLPNSVYNQKP | 6.82
MNLRKILLSSALSLVSAAPVLATSS | 3.92
MTMLRKIIGWILLLCIIPLFAFTVIASQKEV | 6.87
